Test system: SU-DHL-4 cells
Assay: Inhibitory effect on cell viability in SU-DHL-4 cell line (Test Example 1)
Type: cell-based, human
Details: Homo sapiens; SU-DHL-4 cells, 72 hours, Cell Counting Kit-8; concentration showing 90% inhibition of cell viability; read-out: SU-DHL-4 Cell Viability Inhibition Rate IC90
Structures can show the parent of a compound that is named as a salt.
Recorded metric: IC90 (nM)
Return type: number; implicit unit nM.

Examples with their reported IC90 follow.
compound="CCC(=O)N1c2ccccc2[C@H](Nc2ccc(NC(=O)C3CN(C(=O)c4ccc(C5CCN(c6ccc7nnc(Cl)n7n6)CC5)cc4)C3)cc2)C[C@@H]1C [Compound 17p]" recorded_measurement=0.35
compound="CCC(=O)N1c2ccccc2[C@H](NCC23CC(C(=O)N4CC(C(=O)Nc5ccc(N[C@@H]6C[C@H](C)N(C(=O)CC)c7ccccc76)cc5)C4)(C2)C3)C[C@@H]1C (relative stereo) [Compound 17n]" recorded_measurement=5.14
compound="CCC(=O)N1c2ccccc2[C@H](Nc2ccc(NC(=O)CCCC(=O)NC34CCC(NCc5cc(O)cc(-c6c(C)noc6C)c5)(CC3)CC4)cc2)C[C@@H]1C [Compound 17c]" recorded_measurement=2.05
compound="CCC(=O)N1c2ccccc2[C@H](Nc2ccc(NC(=O)CCCC(=O)Nc3ccc(C(=O)N4CCC(=O)Nc5ccccc54)cc3)cc2)C[C@@H]1C [Compound 16o]" recorded_measurement=80.3

Now consider the entry below.
Returns the measured IC90 for the input compound. Input: CCC(=O)N1c2ccccc2[C@H](Nc2ccc(-n3cc(CCNC(=O)C4CCN(Cc5cc(O)cc(-c6c(C)noc6C)c5)CC4)nn3)cc2)C[C@@H]1C [Compound 17l, formate]
1.89

* * *

Tested on: SU-DHL-4 cells
Assay: Inhibitory effect on cell viability in SU-DHL-4 cell line (Test Example 1)
Type: cell-based, human
Settings: SU-DHL-4 cells, 72 hours, Cell Counting Kit-8; concentration showing 90% inhibition of cell viability; read-out: SU-DHL-4 Cell Viability Inhibition Rate IC90
IC90 values, listed per item
Please state the figure in pM; there is no need to write the unit.

Before answering, review these 4 worked examples.
molecule="CCC(=O)N1c2ccccc2[C@H](Nc2ccc(NC(=O)C3CCN(C(=O)C4CCC(N[C@@H]5C[C@H](C)N(C(=O)CC)c6ccccc65)CC4)CC3)cc2)C[C@@H]1C (relative stereo)" recorded_measurement=19000
molecule="CCC(=O)N1c2ccccc2[C@H](Nc2ccc(C(=O)NCCCNC(=O)C3CCC(N[C@@H]4C[C@H](C)N(C(=O)CC)c5ccccc54)CC3)cc2)C[C@@H]1C (relative stereo)" recorded_measurement=20300
molecule="CCC(=O)N1c2ccccc2[C@H](Nc2ccc(-n3cc(CNC(=O)c4cccc(Oc5ccc(NS(=O)(=O)CC)cc5-c5cn(C)c(=O)cc5OC)c4)nn3)cc2)C[C@@H]1C [Compound 16n]" recorded_measurement=480
molecule="CCNC(=O)C[C@@H]1N=C(c2ccc(C(=O)NCCCNC(=O)c3ccc(N[C@@H]4C[C@H](C)N(C(=O)CC)c5ccccc54)cc3)cc2)c2c(sc(C)c2C)-n2c(C)nnc21 [Compound 13e]" recorded_measurement=3330

IC90 for `CCC(=O)N1c2ccccc2[C@H](Nc2ccc(-c3nnc(CNC(=O)[C@H]4CC[C@H](N[C@@H]5C[C@H](C)N(C(=O)CC)c6ccccc65)CC4)o3)cc2)C[C@@H]1C` ?
240

If you can, please state the reported IC90 value of `CCC(=O)N1c2ccccc2[C@H](Nc2ccc(C(=O)NCCCNC(=O)c3ccc(C4=N[C@@H](CC(=O)OC(C)(C)C)c5nnc(C)n5-c5sc(C)c(C)c54)cc3)cc2)C[C@@H]1C` .
270

Given the molecule CCC(=O)N1c2ccccc2[C@H](Nc2ccc(-c3cnn(CCNC(=O)C4CCC(N[C@@H]5C[C@H](C)N(C(=O)CC)c6ccccc65)CC4)c3)cc2)C[C@@H]1C (relative stereo) , what is its reported IC90?
490

* * *

Test system: SU-DHL-4 cells
Assay: Inhibitory effect on cell viability in SU-DHL-4 cell line (Test Example 1)
Type: cell-based, human
Conditions: Homo sapiens; SU-DHL-4 cells, 72 hours, Cell Counting Kit-8; concentration showing 90% inhibition of cell viability; read-out: SU-DHL-4 Cell Viability Inhibition Rate IC90
Recorded metric: IC90 (nM)
Form entry: value (nM) — number only.

Past entries and their recorded results:
molecule="CCC(=O)N1c2ccccc2[C@H](Nc2ccc(NC(=O)CCCC(=O)NC3CCN(Cc4ccccc4-c4cn(C)c(=O)cc4OC)CC3)cc2)C[C@@H]1C [Compound 16h]" unit_abbreviation=nM recorded_measurement=68.4
molecule="CCC(=O)N1c2ccccc2[C@H](Nc2ccc(NC(=O)CCCC(=O)NC3CCN(Cc4cc(O)cc(-c5c(C)noc5C)c4)CC3)cc2)C[C@@H]1C [Compound 12c]" unit_abbreviation=nM recorded_measurement=0.56
molecule="CCC(=O)N1c2ccccc2[C@H](Nc2ccc(NC(=O)CNC(=O)NC3CCN(Cc4cc(O)cc(-c5c(C)noc5C)c4)CC3)cc2)C[C@@H]1C [Compound 17k]" unit_abbreviation=nM recorded_measurement=43.7
molecule="CCC(=O)N1c2ccccc2[C@H](Nc2ccc(C(=O)NCc3nnc(C4CCN(Cc5cc(O)cc(-c6c(C)noc6C)c5)CC4)o3)cc2)C[C@@H]1C [Compound 17m]" unit_abbreviation=nM recorded_measurement=74.1
molecule="CCC(=O)N1c2ccccc2[C@H](Nc2ccc(NC(=O)C3CN(C(=O)c4ccc(OCCN5CCN(C)C(=O)[C@H]5C)cc4)C3)cc2)C[C@@H]1C [Compound 16a]" unit_abbreviation=nM recorded_measurement=11.1
molecule="CCC(=O)N1c2ccccc2[C@H](Nc2ccc(NC(=O)CCCC(=O)Nc3cccc(Oc4ccccc4-c4cn(C)c(=O)cc4OC)c3)cc2)C[C@@H]1C [Compound 16m]" unit_abbreviation=nM recorded_measurement=1.85
molecule="CCC(=O)N1c2ccccc2[C@H](Nc2ccc(NC(=O)CNC(=O)Nc3ccc(N[C@@H]4C[C@H](C)N(C(=O)CC)c5ccccc54)cc3)cc2)C[C@@H]1C (relative stereo) [Compound 6j]" unit_abbreviation=nM recorded_measurement=0.13
molecule="CCC(=O)N1c2ccccc2[C@H](Nc2ccc(NC(=O)CCCC(=O)Nc3ccc(Cn4cc(-c5c(C)noc5C)ccc4=O)cc3)cc2)C[C@@H]1C [Compound 17a]" unit_abbreviation=nM recorded_measurement=0.16

Record request: IC90 value, item CCC(=O)N1c2ccccc2[C@H](Nc2ccc(NC(=O)CNCC(=O)Nc3ccc(N[C@@H]4C[C@H](C)N(C(=O)CC)c5ccccc54)nc3)cc2)C[C@@H]1C (relative stereo) [Compound 17g]
32.7

# get_value(readout='IC90', item= CCC(=O)N1c2ccccc2[C@H](Nc2ccc(NC(=O)CCCC(=O)NC3CC4(C3)CN(Cc3cc(O)cc(-c5c(C)noc5C)c3)C4)cc2)C[C@@H]1C [Compound 16g] )
14.9

* * *

System: SU-DHL-4 cells
Experiment: Inhibitory effect on cell viability in SU-DHL-4 cell line (Test Example 1)
Type: cell-based, human
Conditions: SU-DHL-4 cells, 72 hours, Cell Counting Kit-8; concentration showing 90% inhibition of cell viability; read-out: SU-DHL-4 Cell Viability Inhibition Rate IC90
// reported IC90 per item
Numeric only. Scale: nM

As a guide, the following entries are already answered.
compound="CCC(=O)N1c2ccccc2[C@H](Nc2ccc(C(=O)NC3CN(C(=O)c4ccc(C5=N[C@@H](CC(=O)OCCN(C)C)c6nnc(C)n6-c6sc(C)c(C)c65)cc4)C3)cc2)C[C@@H]1C [Compound 13b]" recorded_metric=IC90 recorded_measurement=3.5
compound=CCC(=O)N1c2ccccc2[C@H](Nc2ccc(NC(=O)c3coc(N[C@H]4CC[C@H](N[C@@H]5C[C@H](C)N(C(=O)CC)c6ccccc65)CC4)n3)cc2)C[C@@H]1C recorded_metric=IC90 recorded_measurement=7.56
compound="CCC(=O)N1c2ccccc2[C@H](Nc2ccc(NC(=O)NC3CN(C(=O)C4CCC(N[C@@H]5C[C@H](C)N(C(=O)CC)c6ccccc65)CC4)C3)cc2)C[C@@H]1C (stereo partly shown)" recorded_metric=IC90 recorded_measurement=7.16
compound="CCC(=O)N1c2ccccc2[C@H](Nc2ccc(CCC(=O)NCC3(NC4CCC(N[C@@H]5C[C@H](C)N(C(=O)CC)c6ccccc65)CC4)COC3)cc2)C[C@@H]1C (stereo partly shown)" recorded_metric=IC90 recorded_measurement=5.47
compound=CCC(=O)N1c2ccccc2[C@H](Nc2ccc(-n3cc(CCNC(=O)[C@H]4CC[C@H](N[C@@H]5C[C@H](C)N(C(=O)CC)c6ccccc65)CC4)nn3)cc2)C[C@@H]1C recorded_metric=IC90 recorded_measurement=0.87

I'm curious: which IC90 was measured for CCC(=O)N1c2ccccc2[C@H](NCc2ccc(C(=O)NCc3cn(-c4ccc(N[C@@H]5C[C@H](C)N(C(=O)CC)c6ccccc65)cc4)nn3)cc2)C[C@@H]1C (relative stereo) [Compound 10h] tested on SU-DHL-4 cells?
0.35

I'm curious: which IC90 was measured for CCC(=O)N1c2ccccc2[C@H](Nc2ccc(NC(=O)C#CCNC(=O)C3CCC(N[C@@H]4C[C@H](C)N(C(=O)CC)c5ccccc54)CC3)cc2)C[C@@H]1C (relative stereo) tested on SU-DHL-4 cells?
0.01

// fetch SU-DHL-4 cells IC90 for CCC(=O)N1c2ccccc2[C@H](Nc2ccc(C(=O)NCCCNC(=O)c3ccc(C(O)c4cc(O)cc(-c5c(C)noc5C)c4)cc3)cc2)C[C@@H]1C (relative stereo)
38

Fill in the recorded IC90 for this compound, with SU-DHL-4 cells as test system: `CCC(=O)N1c2ccccc2[C@H](Nc2ccc(NC(=O)CCNS(=O)(=O)c3ccc(N[C@@H]4C[C@H](C)N(C(=O)CC)c5ccccc54)cc3)cc2)C[C@@H]1C`
4.31

Lookup: IC90 / SU-DHL-4 cells / CCC(=O)N1c2ccccc2[C@H](Nc2ccc(C(=O)NCCS(=O)(=O)NC3CCC(N[C@@H]4C[C@H](C)N(C(=O)CC)c5ccccc54)CC3)cc2)C[C@@H]1C (relative stereo)
1.68
